Values compiled from ChEMBL document CHEMBL1201862.

system: RXF 393; test: NCI tumour cell line growth inhibition, 48 h
Calls of active or inactive are those of the source. Cut-off read from the data, not from the text of the source: active = GI50 up to about 1.1 µM and inactive = higher.
Give GI50 for every item shown.

Which GI50 is reported with RXF 393 for this entry: Cc1cc(C)c2c(c1)C/C(=C\c1cccc(C)c1C(=O)O)C2=O ? 72.9 µM (inactive)

Let us now turn to O=C1C=C/C(=N\N=C(c2ccccc2)c2ccccc2)O1 > 10 µM (inactive)

How about this molecule: Cc1ccc(S(=O)(=O)c2[nH]cc(/C(=C\C3CCCCC3)[N+](=O)[O-])c2C2CCCCC2)cc1 0.196 µM (active)

And for CSc1[nH]nc(N)c1C(=O)Nc1ccc(C)cc1 ? 97.9 µM (inactive)

Moving on to CCC(=O)Nc1ccc(NS(=O)(=O)c2ccc(Cl)cc2)cc1 > 100 µM (inactive)

Next entry: CCOC(=O)c1c[nH]c(C(=O)OCC)c1-c1cccn1-c1ccccc1 16 µM (inactive)

Would you mind doing O=[N+]([O-])c1cccc(C2=NN(c3ccccc3)C3c4ccccc4OCC23)c1 (stereo not given) as well? > 100 µM (inactive)

Do the same for CN(C)CCCn1c(-c2cc(C(C)(C)C)c(O)c(C(C)(C)C)c2)cs/c1=N\c1ccccc1 please 2.17 µM (inactive)

Another: Cc1nn(C(=O)c2ccncc2)c2c1C(c1ccccc1[N+](=O)[O-])SC(=N)N2 (stereo not given) > 10 µM (inactive)

Repeat for the following molecule: NC(=S)N1N=C(c2ccccc2O)CC1c1ccccc1 (stereo not given) 12.4 µM (inactive)

Try the molecule COc1ccc2nc3cc(Cl)ccc3c(Sc3ccc(N)cc3)c2c1 11.7 µM (inactive)

Another molecule to look at: C=C(Br)COc1ccc2c(C)cc(=O)oc2c1 0.0721 µM (active)

Note, next up: Cc1ccc(C)c(NC(=O)C(=O)C(c2cnc3ccc([N+](=O)[O-])cc3n2)[N+](=O)[O-])c1 (stereo not given) 50.1 µM (inactive)

Moving on to the next molecule: COc1cc(CNC2=NCCC2)cc(OC)c1OC > 100 µM (inactive)

Field entry: Cc1cc(S(=O)(=O)Nc2nnc3c(C(F)(F)F)cc(Cl)cn23)c(S)cc1Cl > 100 µM (inactive)

Let us now turn to COc1ccccc1NC(=O)C(CC(C(=O)Nc1ccccc1OC)/C(C)=N/NC(=O)c1ccccc1O)/C(C)=N/NC(=O)c1ccccc1O (stereo not given) 38.8 µM (inactive)

Cool, now COc1nc2c(c(=O)n1C)N=C(c1ccccc1)[C@H](C(CC(=O)c1ccccc1)c1ccccc1)C(c1ccccc1)N2 (stereo not given in full) 28.5 µM (inactive)

How about this molecule: CC1(C)OP23(NC(=O)OC2(C(F)(F)F)c2ccccc2O3)OC1(C)C (stereo not given) > 100 µM (inactive)

Follow-up entry: NS(=O)(=O)c1ccc(NC(=S)N/C=C2\C(=O)Oc3ccccc3C2=O)cc1 12.2 µM (inactive)

# repeat for O=C1/C(=C/c2ccccc2)CN(C(=O)Oc2ccc([N+](=O)[O-])cc2)C/C1=C\c1ccccc1 6.84 µM (inactive)

----------
test system: SNB-75; experiment: NCI tumour cell line growth inhibition, 48 h
Calls of active or inactive are those of the source. Rule as the data show it: active = GI50 up to about 1.1 µM and inactive = higher.
PROPERTY_MEASURED: GI50

Fill in the blank: the reported GI50 of CCSc1nn(-c2c3ccccc3nc3ccccc23)c(=S)s1 is ____. 61.9 µM (inactive)

Field entry: Cc1ccc2c(c1)[nH]c(=S)n2C=C(C(N)=O)C(N)=O > 100 µM (inactive)

Likewise for N#CC12CC3=C(N=C1NC1=C(CCc4ccccc41)C2)c1ccccc1CC3 (stereo unspecified) ? 1.64 µM (inactive)

Another: CCOC(=O)C(=O)Nc1nc2ccc(C)cc2s1 > 100 µM (inactive)

Same for Cn1c2ccccc2c2nc3ccccc3c(Cl)c21 23.4 µM (inactive)

What do you get for CN(C)CCCn1c(-c2cc(C(C)(C)C)c(O)c(C(C)(C)C)c2)cs/c1=N\c1ccccc1 ? 3.88 µM (inactive)

Now consider CCn1c2ccccc2c2c(-c3ccccc3)cc3c(c21)C(=O)N(c1ccccc1)C3=O . 89.5 µM (inactive)

Subsequent entry: O=C(N/C(=C\c1ccc(Br)cc1)c1nc2ccccc2s1)c1ccccc1 > 100 µM (inactive)

Try this compound too: O=C(CCCCCNC(=O)c1ccc(Cl)cc1)NO 1.49 µM (inactive)

What do we get for O=c1[nH]c(=O)n(C2CC(O)C(CO)O2)cc1OCC1CCCCC1 (stereo unspecified) ? > 100 µM (inactive)

Next compound up: Cc1oncc1/N=C1\C=C(O)C(=O)c2ccccc21 13.1 µM (inactive)
